Target: T1, human MC1-R (human, UniProt Q01726 1-317)
T1 construct: whole, on cells; Used in separate experiments for Ki with NDP-α-MSH; the source of the membranes is not described; also called hMC1-R
T1 sequence (Q01726 whole entry): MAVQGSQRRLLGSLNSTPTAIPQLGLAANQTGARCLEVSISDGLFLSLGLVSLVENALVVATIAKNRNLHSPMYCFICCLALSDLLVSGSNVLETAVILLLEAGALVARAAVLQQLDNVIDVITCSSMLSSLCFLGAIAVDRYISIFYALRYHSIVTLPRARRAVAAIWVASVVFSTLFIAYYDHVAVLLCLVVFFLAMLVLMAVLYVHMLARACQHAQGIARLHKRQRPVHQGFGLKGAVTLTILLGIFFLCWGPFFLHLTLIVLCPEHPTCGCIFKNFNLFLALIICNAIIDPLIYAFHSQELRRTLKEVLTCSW
Experiment: radioligand competition, NDP-α-MSH, human MC1-R, normal system
pKi: −log10 of the molar value. Positions of bridges follow the written chain, without caps; N, C: chain ends. Non-standard residues stand in square brackets, D forms with d. 1Nal = N[C@@H](Cc1cccc2ccccc12)C(=O)O; Nle = CCCC[C@H](N)C(=O)O
pKi of 9 or higher: Met. Under 9: Not met.

Here are 2 binders together with their reported answers.
{"binder": "XDHFRXK (N-terminal acetyl; Nle at 1 (X); D-Phe at 4; Nal 1 at 6 (X); cyclo(Asp 2 to Lys 7); C-terminal ethylamide -NH-CH2-CH3, also called Compound No. 39) [Ac-Nle-cyclo(-Asp-His-D-Phe-Arg-Nal 1-Lys)-NH-CH2-CH3]", "assigned category": "Met"}
{"binder": "Ac-[Nle]DW[dF]R[1Nal]K-NHEt (lactam 2-7; SMILES CCCC[C@H](NC(C)=O)C(=O)N[C@H]1CC(=O)NCCCC[C@@H](C(=O)NCC)NC(=O)[C@H](Cc2cccc3ccccc23)NC(=O)[C@H](CCCNC(=N)N)NC(=O)[C@@H](Cc2ccccc2)NC(=O)[C@H](Cc2c[nH]c3ccccc23)NC1=O, also called Compound No. 38) [Ac-Nle-cyclo(-Asp-Trp-D-Phe-Arg-Nal 1-Lys)-NH-CH2-CH3]", "assigned category": "Not met"}

Has XDHFRXK (N-terminal acetyl; Nle at 1 (X); D-Phe at 4; Nal 1 at 6 (X); cyclo(Asp 2 to Lys 7); C-terminal dimethylamide -N(CH3)2, also called Compound No. 37) [Ac-Nle-cyclo(-Asp-His-D-Phe-Arg-Nal 1-Lys)-N(CH3)2] a recorded pKi greater than or equal to 9?
Met

Has Ac-DH[dF]RWK-NHEt (lactam 1-6, also called Compound No. 40) [Ac-cyclo(-Asp-His-D-Phe-Arg-Trp-Lys)-NH-CH2-CH3] a recorded pKi greater than or equal to 9?
Met

Has Ac-[Nle]DW[dF]R[1Nal]K-NMe2 (lactam 2-7, also called Compound No. 36) [Ac-Nle-cyclo(-Asp-Trp-D-Phe-Arg-Nal 1-Lys)-N(CH3)2] a recorded pKi greater than or equal to 9?
Not met
